Organism: Rattus norvegicus
Assay: Open TG-GATES - Regimen: Single
Format: toxicity, organism-based, Sprague-Dawley
Parameters: regimen Single, gender Male, age 6 weeks
Settings: in vivo, po, 0 mg/kg, 9 h, tissue Blood, route gavage, dose level Control
Let's look at some compounds and their measured Fbg.
READOUT KIND: Fbg (mg/dL)

>>> quantitative_result("CCOC(=O)[C@H](CCc1ccccc1)N[C@@H](C)C(=O)N1CCC[C@H]1C(=O)O")
215.4
>>> quantitative_result("CC(CN1c2ccccc2Sc2ccccc21)N(C)C (stereo unspecified)")
318.8
>>> quantitative_result("C1CCC(C(CC2CCCCN2)C2CCCCC2)CC1 (stereo unspecified)")
319
>>> quantitative_result("Clc1c(Cl)c(Cl)c(Cl)c(Cl)c1Cl")
226.6
>>> quantitative_result("Cc1cccc(Nc2ccccc2C(=O)O)c1C")
228.8
>>> quantitative_result("CN1C(C(=O)Nc2ccccn2)=C(O)c2sc(Cl)cc2S1(=O)=O")
230.6

The measured values listed here are drawn from ChEMBL document CHEMBL3885861.
